Below: a set of entries, each annotated with reported %Inh.
Test system: ANKK1;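 further: KINOMEscan kinase panel screen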
Test Conditions: concentration: 1 μM, replicates: in singlicate; n = 1
Give just the numeric value; % need not be written.

Record excerpt, results attached:
Record NCCNS(=O)(=O)c1ccc(-c2ccnc3[nH]ccc23)cc1 / ANKK1, %Inh recorded as 0

ANKK1 %Inh of COc1ccc(S(=O)(=O)NC2CCN(c3cc(C)nc(Nc4cccc(C#N)c4)n3)CC2)cc1.O=C(O)C(F)(F)F is 14

GET /values?item= Fc1ccc(-c2nn3c(OCC(F)(F)F)cccc3c2-c2ccncc2)cc1 &system= ANKK1 returns %Inh: 25

Item: O=c1cc(N2CCOCC2)nc2n(Cc3cccc(F)c3)ccn12 | System: ANKK1 | %Inh: 0

// assay ANKK1, entry O=C1NC(=O)C(N2CCc3ccccc32)=C1c1cccc(Cl)c1 , %Inh value = 1

---
Item: COc1ccc(Nc2nccc(N3CCC(NC(=O)Nc4cc(C)ccc4C)C3)n2)cc1 (stereo not drawn) | System: ANKK1 | %Inh: 0

Readout %Inh for O=C(c1ccc(-c2cc(-c3c[nH]nc3-c3ccccn3)ccn2)cc1)N1CCOCC1 , test system ANKK1, was 14

Item CCc1ccnc(/C=C/c2n[nH]c3cc(Sc4ccccc4C(=O)NC)ccc23)c1 ; assay system ANKK1; %Inh reported as 0

Query O=C(Nc1n[nH]c2cc(-c3cccc(F)c3)ccc12)C1CC1 on ANKK1; %Inh returned: 0

%Inh for ANKK1 with input Cc1c(Cn2c(C)nn3c(=O)cc(N4CCOC(C)C4)nc23)cccc1C(F)(F)F (stereo not drawn) equals 0

The compound [2H]C([2H])(c1cccc(C(F)(F)F)c1C)n1ccn2c(=O)nc(N3CCOCC3)cc12 , when measured on ANKK1, yielded %Inh of 0

The observed %Inh for Cn1ccc2ncnc(Oc3ccc(NC(=O)Nc4ccncc4)c(Cl)c3)c21 when tested with ANKK1 stands at 0
